Quick reference: TGI of the listed items.
Tested on: SF-268 CNS
Experiment: NCI tumour cell line growth inhibition, 48 h
# output: bare number, implied unit µM

CN1CCN(CCCOc2ccc3nc(Nc4ccc(F)c(F)c4)ccc3c2)CC1    8.31
C/C(=C\Cc1ccc(F)cc1)CCCCCC/C(C)=C/Cc1ccc(F)cc1    37.2
COC(=O)CC1(O)C=CC(=O)C=C1    14.8
Oc1cccc2c(Br)ccnc12    14.2
O=C1N2CCC[C@H]2CS1(=O)=O    42.7

input: Assign TGI to the following record: CC(=O)c1c[nH]c2ccc(-c3ccnc(Nc4ccc(NC(=O)C5CCCC5)c(CN5CCOCC5)c4)n3)cc12
output: 0.159

input: Assign TGI to the following record: CCC[CH2][Sn]([CH2]CCC)([CH2]CCC)/[C](=C/[Si](C)(C)c1ccccc1)c1ccc2c(c1)OCO2
output: 98.4

input: Assign TGI to the following record: Cc1cc(C)nc(NS(=O)(=O)c2ccc(NNc3c4ccccc4nc4c(C(=O)Nc5ccc(S(=O)(=O)Nc6cc(C)on6)cc5)cccc34)cc2)n1
output: 81.3

====

System: OVCAR-5 ovarian
Assay: NCI tumour cell line growth inhibition, 48 h
Where a SMILES comes first, the peptide text is derived from it. The star is where a group is joined. Boc = CC(C)(C)OC(=O)*
quantity-measured: TGI

Past entries and their recorded results:
CC(=O)CC(=O)N1CCSC1=S    > 10 µM
CCC1=C(C[C@H]2NCCc3cc(OC)c(OC)cc32)C[C@H]2c3cc(OC)c(OC)cc3CCN2C1    0.49 µM
COC(=O)C(Cc1c[nH]c2ccccc12)NC(=O)C(Cc1c[nH]c2ccccc12)NC(=O)C(Cc1c[nH]c2ccccc12)NC(=O)C(Cc1c[nH]c2ccccc12)NC(=O)C(Cc1c[nH]c2ccccc12)NC(=O)C(Cc1c[nH]c2ccccc12)NC(=O)C(Cc1c[nH]c2ccccc12)NC(=O)OC(C)(C)C (configuration not stated) (Boc-WWWWWWW-OMe; configuration not given here)    > 100 µM
COC(=O)c1onc(C2OC(C)(C)OC2C(O)COC(c2ccccc2)(c2ccccc2)c2ccccc2)c1C(=O)OC (configuration not stated)    > 100 µM
O=C(c1ccccc1)c1nnn(Cc2ccccc2Cn2nnc(C(=O)c3ccccc3)c2C(=O)c2ccccc2)c1C(=O)c1ccccc1    > 100 µM
O=C1C=CC2(O[C@H](C3CCCCC3)[C@@H](C3CCCCC3)O2)C(SC(=O)c2ccccc2)C1 (some centres not stated)    6.32 µM
Cc1cc(N2CCCCC2)nc2ccc(Cc3ccc4nc(N5CCCCC5)cc(C)c4c3)cc12    > 100 µM
CCOC(=O)c1c(-c2ccccc2)[n+](=O)c2cc(F)c(F)cc2n1[O-]    4.13 µM
CC(C)C1(NC(=O)C2CC3c4cccc5[nH]cc(c45)CC3N(C)C2)OC2(O)C3CCCN3C(=O)C(Cc3ccccc3)N2C1=O (configuration not stated)    > 100 µM
CC(C)(C)OC(=O)C(C#N)C(=O)c1ccc(C(=O)O)[nH]1 (configuration not stated)    > 100 µM

input: Fill: TGI (OVCAR-5 ovarian) for this compound CCCCNS(=O)(=O)c1ccc(-c2ccc3c(c2)-c2ccc(S(=O)(=O)NCCCC)cc2S3(=O)=O)cc1
output: > 100 µM

input: Fill: TGI (OVCAR-5 ovarian) for this compound Clc1ccc(-c2nn3c(COc4cccc(OCc5nnc6sc(-c7ccc(Cl)cc7)nn56)c4)nnc3s2)cc1
output: 74.4 µM

input: Fill: TGI (OVCAR-5 ovarian) for this compound O=C1c2ccccc2C2(c3ccc(F)cc3)NCCN12 (configuration not stated)
output: > 100 µM

input: Fill: TGI (OVCAR-5 ovarian) for this compound CC(C)(C)c1cc(OCc2nnc3sc(Cc4ccccc4)nn23)c(Cl)cc1OCc1nnc2sc(Cc3ccccc3)nn12
output: > 100 µM

input: Fill: TGI (OVCAR-5 ovarian) for this compound [N-]=[N+]=Nc1nc2ccccc2c(N=[N+]=[N-])c1Cl
output: > 100 µM

input: Fill: TGI (OVCAR-5 ovarian) for this compound O=C1C(Cl)=C(Cl)C(=O)N1c1ccc(Cl)c(Cl)c1Cl
output: > 100 µM

input: Fill: TGI (OVCAR-5 ovarian) for this compound COc1cc(Cl)c(CC(=O)c2c[nH]c3ccccc23)cc1OC
output: > 100 µM

input: Fill: TGI (OVCAR-5 ovarian) for this compound CS(=O)(=O)c1ccc(COP(N)(=O)N(CCCl)CCCl)cc1 (configuration not stated)
output: > 100 µM

input: Fill: TGI (OVCAR-5 ovarian) for this compound O=c1[nH]nc(-c2ccccc2)c2[nH]c3c(c12)Cc1ccccc1-3
output: > 100 µM

input: Fill: TGI (OVCAR-5 ovarian) for this compound C=CC1C(CC2OC(CO)C(O)C(O)C2O)OC=C2C(=O)OCCC21O (configuration not stated)
output: 44.5 µM

input: Fill: TGI (OVCAR-5 ovarian) for this compound Nc1ccc2c(=O)cc(-c3ccc(Br)s3)[nH]c2n1
output: > 100 µM

input: Fill: TGI (OVCAR-5 ovarian) for this compound Cc1cc(=O)[nH]c(NNC(C#N)c2ccccc2O)n1 (configuration not stated)
output: > 100 µM

====

Quick reference: TGI of the listed items.
Test system: NCI-H460 lung
Test: NCI tumour cell line growth inhibition, 48 h

CCC1=C(C[C@H]2NCCc3cc(OC)c(OC)cc32)C[C@H]2c3cc(OC)c(OC)cc3CCN2C1    0.134 µM
O=C1C=CC(=O)c2c1ccc1c3ccccc3n(Cc3ccccc3)c21    > 100 µM
NC1=NC(SCc2ccccc2CCl)c2ncn(Cc3ccccc3CCl)c2N1 (centres undefined)    6.69 µM

Below: the item to evaluate.
input: Assign TGI to the following record: COC(=O)[C@@H](NS(=O)(=O)CC12CCC(CC1)C2(C)C)C(C)(C)C
output: > 100 µM

====

Quick reference: TGI of the listed items.
Tested on: ACHN renal
Assay: NCI tumour cell line growth inhibition, 48 h

C=CC1C(CC2OC(CO)C(O)C(O)C2O)OC=C2C(=O)OCCC21O (stereo not given)    > 100 µM

input: Assign TGI to the following record: CCOC(=O)c1c(-c2ccccc2)[n+](=O)c2cc(F)c(F)cc2n1[O-]
output: 2.8 µM

input: Assign TGI to the following record: CC(=O)CC(=O)N1CCSC1=S
output: > 10 µM

====

Tested on: SK-MEL-5 melanoma
Assay: NCI tumour cell line growth inhibition, 48 h
Quick reference: TGI of the listed items.

Past entries and their recorded results:
O=C(O)Cn1c2c(c3c1-c1ccccc1C3=O)C(=O)CCC2    > 100 µM
CC(C)(C)OC(=O)C(C#N)C(=O)c1ccc(C(=O)O)[nH]1 (stereo not drawn)    > 100 µM

input: Assign TGI to the following record: COC(=O)[C@@H](NS(=O)(=O)CC12CCC(CC1)C2(C)C)C(C)(C)C
output: > 100 µM

====

Test system: IGROV1 ovarian
Assay: NCI tumour cell line growth inhibition, 48 h
quantity-measured: TGI (µM)
# output: bare number, implied unit µM

COC(=O)CC1(O)C=CC(=O)C=C1    5.04

Below: the item to evaluate.
input: Assign TGI to the following record: COc1cc2nc(N3CCC[C@H](NC4=CC(=O)c5ccccc5C4=O)C3)nc(N)c2cc1OC
output: 4.27

====

Quick reference: TGI of the listed items.
Test system: T-47D breast
Assay: NCI tumour cell line growth inhibition, 48 h

Past entries and their recorded results:
Oc1ccc2ccccc2c1OCc1nnc(CCCCCCCCc2nnc(COc3c(O)ccc4ccccc34)n2Nc2ccccc2)n1Nc1ccccc1    > 100 µM
O=C1CC(c2ccsc2)n2cccc21 (centres undefined)    > 100 µM
CC(C)[C@H](C)/C=C/[C@@H](C)C1CC[C@H]2[C@@]34C=C[C@]5(C[C@@H](O)CC[C@]5(C)[C@H]3CC[C@]12C)OO4 (some centres undefined)    > 100 µM

input: Assign TGI to the following record: OCCCCC#Cc1ccccc1C#Cc1cccnc1
output: > 100 µM

input: Assign TGI to the following record: CCCCCCCCCCCNC=O
output: > 100 µM

input: Assign TGI to the following record: c1ccc2c(Nc3ncco3)cccc2c1
output: > 10 µM

input: Assign TGI to the following record: COc1cccc2c1OC1c3ccccc3OCC1(O)C2 (centres undefined)
output: > 100 µM

====

Tested on: NCI-H226 lung
Assay: NCI tumour cell line growth inhibition, 48 h
quantity-measured: TGI (µM)
# output: bare number, implied unit µM

O=c1[nH]nc(-c2ccccc2)c2[nH]c3c(c12)Cc1ccccc1-3    70.7

input: Assign TGI to the following record: COc1cc2nc(N3CCC[C@H](NC4=CC(=O)c5ccccc5C4=O)C3)nc(N)c2cc1OC
output: 55.6

input: Assign TGI to the following record: COc1cc(F)c(F)cc1C(=O)c1cnc(NC2CCN(S(C)(=O)=O)CC2)nc1N
output: 22
